Parameter: pKi. Scope: all listed entries.
study.system: Orexin/Hypocretin receptor type 1 (Homo sapiens, UniProt O43613)
Sequence (O43613 whole entry): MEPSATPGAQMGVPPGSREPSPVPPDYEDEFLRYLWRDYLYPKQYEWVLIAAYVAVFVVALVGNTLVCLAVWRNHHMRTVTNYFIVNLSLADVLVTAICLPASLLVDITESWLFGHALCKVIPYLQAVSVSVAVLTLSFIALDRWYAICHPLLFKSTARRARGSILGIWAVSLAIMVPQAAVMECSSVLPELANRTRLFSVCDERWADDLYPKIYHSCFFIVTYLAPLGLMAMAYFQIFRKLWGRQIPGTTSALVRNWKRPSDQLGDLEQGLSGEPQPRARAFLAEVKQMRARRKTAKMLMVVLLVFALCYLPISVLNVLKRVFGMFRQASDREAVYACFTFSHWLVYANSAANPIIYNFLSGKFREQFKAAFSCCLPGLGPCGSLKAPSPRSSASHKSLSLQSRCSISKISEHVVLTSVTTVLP
method.description: Antagonist activity at OX1R (unknown origin) by cell-based calcium assay
Convention used: pKi is expressed as -log10 of the molar concentration.

COc1ccc2c3c1O[C@H]1[C@H](N(C)C(=O)/C=C/c4ccoc4)CC[C@H]4[C@@H](C2)N(S(=O)(=O)c2ccccc2)CC[C@@]341 = 7.63
COc1ccc2c3c1O[C@H]1[C@H](N(C)C(=O)/C=C/c4ccoc4)CC[C@@]4(O)[C@@H](C2)N(S(=O)(=O)c2ccccc2)CC[C@]314 = 7.77
COc1ccc2c3c1O[C@H]1[C@H](N(C)C(=O)/C=C/c4ccoc4)CC=C4[C@@H](C2)N(S(=O)(=O)c2ccccc2)CC[C@]431 = 8.63
COc1ccc2c3c1O[C@H]1[C@H](N(C)C(=O)/C=C/c4ccoc4)CC[C@@]4(O)[C@@H](C2)N(S(=O)(=O)c2ccccc2N(C)C)CC[C@]314 = 8.32
COc1ccc2c3c1O[C@H]1[C@H](N(C)C(=O)/C=C/c4ccoc4)CC=C4[C@@H](C2)N(S(=O)(=O)c2ccccc2N(C)C)CC[C@]431 = 8.05

Query :: Find the measured pKi: item `COc1ccc2c3c1O[C@H]1[C@H](N(C)C(=O)/C=C/c4ccoc4)CC[C@H]4[C@@H](C2)N(S(=O)(=O)c2ccccc2N(C)C)CC[C@@]341` , target or system Orexin/Hypocretin receptor type 1 (Homo sapiens, UniProt O43613).
Result :: 7.27

Source: ChEMBL document CHEMBL5131444
